Activity values, listed per item
# experiment: Toxicity in Sprague-Dawley rat assessed as dose required to produce 10% increase in lung to terminal body weight ratio administered orally via gavage for 5 to 14 days measured 24 hrs post last dose
# measurement-context: in vivo, po

Worked examples, 5 molecules total:
• CC(C)Oc1ccc(-c2nc(-c3cccc4c3CC[C@H]4NCCO)no2)cc1C#N = 2.8 mg/kg
• CC(C)Oc1ccc(-c2nc(-c3cccc4c3CC[C@@H]4NCCO)no2)cc1C#N [OZANIMOD] = 2.7 mg/kg
• COCCS(=O)(=O)N[C@H]1CCc2c(-c3noc(-c4ccc(OC(C)C)c(C#N)c4)n3)cccc21 = 5 mg/kg
• CC(C)Oc1ccc(-c2nc(-c3cccc4c3CC[C@H]4NC(=O)N3CC(O)C3)no2)cc1C#N = 21.3 mg/kg
• CC(C)Oc1ccc(-c2nc(-c3cccc4c3CC[C@H]4NCC(=O)N(C)C)no2)cc1C#N.Cl = 5.5 mg/kg

Provide only the value of recorded Activity for CC(C)Oc1ccc(-c2nc(-c3cccc4c3CC[C@H]4NS(=O)(=O)CCO)no2)cc1C#N 1.1 mg/kg

Provide only the value of recorded Activity for COCCS(=O)(=O)N[C@@H]1CCc2c(-c3noc(-c4ccc(OC(C)C)c(C#N)c4)n3)cccc21 2.1 mg/kg

Provide only the value of recorded Activity for CC(C)Oc1ccc(-c2nc(-c3cccc4c3CC[C@@H]4NS(=O)(=O)CCO)no2)cc1C#N 5 mg/kg

Provide only the value of recorded Activity for CC(C)Oc1ccc(-c2nc(-c3cccc4c3CC[C@@H]4NCC(=O)N(C)C)no2)cc1C#N 0.3 mg/kg
